I'd be grateful if you could share measured Counts (raw counts for peptide sequence), Seq I for these entries.
Molecular target: biotinylated CD59 (Homo sapiens, UniProt P13987)
Construct: Recombinant soluble human CD59 with an additional C-terminal cysteine residue
Sequence (P13987 26-102 limits assumed): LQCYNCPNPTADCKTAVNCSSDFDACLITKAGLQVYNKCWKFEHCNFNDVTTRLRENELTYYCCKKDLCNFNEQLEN
Assay: mRNA-display cyclic peptide screen against CD59-biotin, NGS abundance after 6th selection round
Settings: NGS sample Seq I, sheet R6 (6th selection round)
Give bare numbers.

INSERT INTO measurements (macromolecule_sequence, result_number) VALUES
  ('RRDRFDQCVL', 33),
  ('CFSARAVLDGGW', 59),
  ('CSSLRARGWI', 75),
  ('ITRGSNIYAYG', 79),
  ('HVFGNRSLTRG', 93),
  ('CYGGRSFIYAWS', 47);

Batch request: Counts (raw counts for peptide sequence), Seq I for each of the following sequences.
1. CYGGRTFIYSWS
2. FRGRNDICTH
3. CAWGNRYTAYY
4. SAWGNRKIQYY
5. CFLNRASFSGI
6. FARGDLYSVLG

1: 46; 2: 73; 3: 68; 4: 55; 5: 60; 6: 71

Batch request: Counts (raw counts for peptide sequence), Seq I for each of the following sequences.
1. RVGSQFCAQL
2. TFRSRTSCGAV
3. YVRGDLYSVLG
4. SAWGNRQIQCY

1. 33
2. 51
3. 40
4. 55

Batch request: Counts (raw counts for peptide sequence), Seq I for each of the following sequences.
1. PFAKRVAAQGGC
2. LVRGDLYSVLG
3. YVYGSRDRC
4. CFSHRNPTDSI

[24, 85, 74, 32]

---

Molecular target: biotinylated CD59 (Homo sapiens, UniProt P13987)
Construct: Recombinant soluble human CD59 with an additional C-terminal cysteine residue
Sequence (P13987 26-102 limits assumed): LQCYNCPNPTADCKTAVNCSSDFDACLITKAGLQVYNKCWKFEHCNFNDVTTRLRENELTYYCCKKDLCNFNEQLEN
Assay: mRNA-display cyclic peptide screen against CD59-biotin, NGS abundance after 6th selection round
Details: NGS sample Seq I, sheet R6 (6th selection round)
Output 1 (yes) for Counts (raw counts for peptide sequence), Seq I not less than 60; output 0 (no) otherwise.

INSERT INTO assay_data (macromolecule_sequence, class_assignment) VALUES
  ('SWTWGNRSSVLG', '0 (no)');

# check: Counts (raw counts for peptide sequence), Seq I of WTRGSKDYARG is greater than or equal to 60
0 (no)

// same read-out, input: HVFGNRSSTRG
1 (yes)

// same read-out, input: IARGDWNHQFF
0 (no)

// same read-out, input: CFSRRLTVGAI
0 (no)

// same read-out, input: CFIRRSIESGTA
0 (no)

---

Target: biotinylated CD59 (Homo sapiens, UniProt P13987)
Construct: Recombinant soluble human CD59 with an additional C-terminal cysteine residue
Sequence (P13987 26-102 limits assumed): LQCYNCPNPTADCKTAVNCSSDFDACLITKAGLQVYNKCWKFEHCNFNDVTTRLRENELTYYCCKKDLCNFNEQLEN
Experiment: mRNA-display cyclic peptide screen against CD59-biotin, NGS abundance after 6th selection round
Details: counts normalised by total counts of sample Seq I; percentage of the pool, sheet R6
quantity_name: Percentage Seq I (%)
Numbers only, in %.

Batch request: Percentage Seq I for each of the following sequences.
1. WTRGSKDYTRG
2. CFSSRVQSGDT
3. CFSHRRLEYGV
4. HVFGNRFFTRG
5. CFRYRLGLTST
6. CFAGRLTTDAV

1: 0.168; 2: 0.214; 3: 0.045; 4: 0.031; 5: 0.062; 6: 0.044

Reference for the values: paper PMC12207370
